ASSAY_OVERVIEW: Acute IV pharmacokinetics
Type: in vivo, rat (female Wistar)
TEST_CONDITIONS: female, rat, plasma, 10 mg/mL; ESBP2 IV bolus, Wistar rats (n=8); at 30 minutes following injection; read-out: observed maximum concentration
ENDPOINT_NAME: Cmax (ng/mL)
Numbers only, in ng/mL.

Incoming: Item under review: Ac-ESLSLSLSLSLSLEGSALEEQLKTFLDKFMHELEDLLYQLAL-NH2 [ESBP2] . Reported Cmax?
Outgoing: 36000

====

ASSAY_OVERVIEW: Acute IV pharmacokinetics
Format: in vivo, rat (female Wistar)
TEST_CONDITIONS: female, rat, plasma, 10 mg/mL; ESBP2 IV bolus, Wistar rats (n=8); read-out: area under the curve
ENDPOINT_NAME: AUC (ng·h/mL)
Numbers only, in ng·h/mL.

Incoming: Item under review: Ac-ESLSLSLSLSLSLEGSALEEQLKTFLDKFMHELEDLLYQLAL-NH2 [ESBP2] . Reported AUC?
Outgoing: 47000
